TEST_METHOD_NOTES: Permeability studies, Franz diffusion cells
Assay type: in vitro ADME
STUDY_CONDITIONS: pig, pH 8, pH 8.0 + 1% tocopherol acetate
MEASUREMENT_LABEL: Papp at 120 min (×10⁻⁶ cm/s)
Quick note: give the figure in ×10⁻⁶ cm/s, leave out the unit.

-- ask Need Papp at 120 min of `CN1CCc2cccc3c2[C@H]1Cc1ccc(O)c(O)c1-3` , thanks.
-- reply 0.98

---

TEST_METHOD_NOTES: Permeability studies, Franz diffusion cells
Type: in vitro ADME
STUDY_CONDITIONS: pig, pH 6.8, pH 6.8
MEASUREMENT_LABEL: Papp at 120 min
Show the value, then the unit it is measured in.

-- ask Suppose we examine the compound `CN1CCc2cccc3c2[C@H]1Cc1ccc(O)c(O)c1-3` ; what Papp at 120 min value has been reported?
-- reply 0.054 ×10⁻⁶ cm/s
